Molecular target: Inadl_9, Q8NI35
Sequence (Q8NI35 1530-1615): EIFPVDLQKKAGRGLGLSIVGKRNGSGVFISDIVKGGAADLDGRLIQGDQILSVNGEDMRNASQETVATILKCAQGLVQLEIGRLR
Assay: holdup assay
Set-up: key: below the threshold = too weak to quantify, mostly under pKd 3.1 to 4
Conditions: plain residues with an end cap or a label only (N-terminal biotin on a linker: ado-ado)
Parameter Measured: pKd
Kindly provide the number alone.

# Binder, pKd
measured = [
    ("TGLWKHETTV [ADGRA3, Q8IWK6]", 3.74),
]

# input for lookup
Give a short answer stating reported pKd for VLYPREGTEV [FOXI1, Q12951] . 4.03
